- System: AR mRNA
- ASSAY_EXPLANATION: Dose-dependent antisense inhibition of human AR in HuVEC cells (electroporation, qRT-PCR RTS3559, IC50)
- Assay type: cell-based
- EXPERIMENTAL_CONDITIONS: Table 30; 187.5 nM, HuVEC, electroporation, approximately 16 hours
Oligonucleotides are written 5' to 3', each unit as a sugar letter and its base; * is a phosphorothioate linkage, no mark a phosphodiester; rarer units and linkages stand in square brackets, end groups in braces. Plain capitals give the bases only. k = constrained ethyl (cEt); [5mC] = 5-methylcytosine; d = 2'-deoxy (DNA)
Readings of percent inhibition of AR, 187.5 nM for the listed substances
// units = %; emit number, no label

Look over these answered cases.
583642 (antisense kA*kG*kT*dG*dT*d[5mC]*d[5mC]*dA*d[5mC]*dT*dG*dA*dA*kG*kT*kA) [compound 583642] : 35
583688 (antisense kG*k[5mC]*kG*dG*dT*dA*dG*dT*d[5mC]*dG*d[5mC]*dT*dG*k[5mC]*kA*kG) [compound 583688] : 26
583709 (antisense kG*k[5mC]*kT*dT*dG*dG*d[5mC]*dT*dG*dA*dA*dT*d[5mC]*kT*kT*k[5mC]) [compound 583709] : 50
583689 (antisense kA*kT*kG*d[5mC]*dG*dG*dT*dA*dG*dT*d[5mC]*dG*d[5mC]*kT*kG*k[5mC]) [compound 583689] : 34
583738 (antisense kG*kT*kT*d[5mC]*dT*dG*dG*dA*dT*d[5mC]*dA*d[5mC]*dT*kT*k[5mC]*kG) [compound 583738] : 40

Here is another substance to look at.
# substance 583692 (antisense kG*kT*kG*dA*dT*dG*dA*dT*dG*d[5mC]*dG*dG*dT*kA*kG*kT) [compound 583692] ; its percent inhibition of AR, 187.5 nM = 47

* * *

- Tested on: AR mRNA
- ASSAY_EXPLANATION: Dose-dependent antisense inhibition of human AR in HuVEC cells (electroporation, qRT-PCR RTS3559, IC50)
- Type: cell-based
- EXPERIMENTAL_CONDITIONS: Table 33; 3000.0 nM, HuVEC, electroporation, approximately 16 hours
Oligonucleotides are written 5' to 3', each unit as a sugar letter and its base; * is a phosphorothioate linkage, no mark a phosphodiester; rarer units and linkages stand in square brackets, end groups in braces. Plain capitals give the bases only. k = constrained ethyl (cEt); [5mC] = 5-methylcytosine; d = 2'-deoxy (DNA)
ASSAY_ENDPOINT: percent inhibition of AR, 3000.0 nM (%)
// units = %; emit number, no label

Look over these answered cases.
583843 (kG*kT*kA*d[5mC]*dA*dT*dG*d[5mC]*dA*dA*dT*d[5mC]*d[5mC]*k[5mC]*k[5mC]*k[5mC]; antisense) [compound 583843] : 85
549372 (kA*kA*kG*dT*dT*dG*dT*dA*dG*dT*dA*dG*dT*k[5mC]*kG*k[5mC]) [compound 549372] : 90
583868 (kA*k[5mC]*kT*d[5mC]*dA*dG*d[5mC]*dA*dG*dT*dA*dT*d[5mC]*kT*kT*k[5mC]; antisense) [compound 583868] : 81
583851 (kG*kT*kG*dG*dG*dA*d[5mC]*dG*d[5mC]*dA*d[5mC]*dA*dG*k[5mC]*kG*kG; antisense) [compound 583851] : 76
549458 (kG*kT*kT*dG*dA*dT*dT*dT*dA*dA*dT*dG*dG*kT*kT*kG) [compound 549458] : 96

Here is another substance to look at.
Entry 583847 (kA*k[5mC]*kA*dG*d[5mC]*dG*dG*dG*dT*dG*dG*dA*dA*k[5mC]*kT*k[5mC]; antisense) [compound 583847] , tested on AR mRNA, has a reported percent inhibition of AR, 3000.0 nM of 84

// data source = patent USRE48461E1
